Biological target: T1, AVITAG CD122/CD132 heterodimer (human, UniProt P14784 27-239; P31785 23-262)
T1 construct: also called IL-2Rβ/γ
T1 sequence 1: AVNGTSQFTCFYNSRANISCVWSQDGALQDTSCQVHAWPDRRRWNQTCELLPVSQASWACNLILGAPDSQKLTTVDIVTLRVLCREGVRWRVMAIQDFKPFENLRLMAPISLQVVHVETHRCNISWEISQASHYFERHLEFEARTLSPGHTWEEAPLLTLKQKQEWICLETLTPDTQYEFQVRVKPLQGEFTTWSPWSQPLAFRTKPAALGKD
T1 sequence 2: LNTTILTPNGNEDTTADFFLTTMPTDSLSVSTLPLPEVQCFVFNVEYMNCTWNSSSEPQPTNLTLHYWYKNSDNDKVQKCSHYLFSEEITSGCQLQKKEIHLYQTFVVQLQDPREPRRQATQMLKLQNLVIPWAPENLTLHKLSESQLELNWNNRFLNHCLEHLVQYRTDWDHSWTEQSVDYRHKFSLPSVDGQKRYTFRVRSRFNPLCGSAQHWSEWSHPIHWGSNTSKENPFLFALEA
Assay: BLI (OCTET RED96); receptor loaded on biosensor, IL-2 mutein in solution at 10 to 2,000 nM
Field: Kd. Provide a value for each of the binders that follow.
Give the value in nM but do not write nM after it.

Identify the reported Kd for the following entry. IL-2-IL-15 Chimera 42 (E15K, N88A, C125S) (ligand, no fusion partner is stated) APTSSSTKKTQLQLKHLLLDLQMILNGIQSMEIDATTFKFYMPKKATELKHLQCLEEELKPLEEVLNLAQSKNFHLRPRDLISAINVIVLELKGSETTFMCEYADETATIVEFLNRWITFSQSIISTLT
53

Identify the reported Kd for the following entry. IL-2-IL-15 Chimera 68 (T3A, C125S, Q126T, S130R) (ligand, no fusion partner is stated) APASSSTKKTQLQLEHLLLDLQMILNGIQSMEIDATTFKFYMPKKATELKHLQCLEEELKPLEEVLNLAQSKNFHLRPRDLISNINVIVLELKGSETTFMCEYADETATIVEFLNRWITFSTSIIRTLT
32

Identify the reported Kd for the following entry. IL-2-IL-15 Chimera 64 (T3A, L18C, Q126S) (ligand, no fusion partner is stated) APASSSTKKTQLQLEHLCLDLQMILNGIQSMEIDATTFKFYMPKKATELKHLQCLEEELKPLEEVLNLAQSKNFHLRPRDLISNINVIVLELKGSETTFMCEYADETATIVEFLNRWITFCSSIISTLT
382

Identify the reported Kd for the following entry. IL-2-IL-15 Chimera 54 (T3A, C125S, Q126T) (ligand, no fusion partner is stated) APASSSTKKTQLQLEHLLLDLQMILNGIQSMEIDATTFKFYMPKKATELKHLQCLEEELKPLEEVLNLAQSKNFHLRPRDLISNINVIVLELKGSETTFMCEYADETATIVEFLNRWITFSTSIISTLT
30
